assay_target: T1, DLG3_2, Q92796
T1 sequence (Q92796 221-321, limits assumed, looked up): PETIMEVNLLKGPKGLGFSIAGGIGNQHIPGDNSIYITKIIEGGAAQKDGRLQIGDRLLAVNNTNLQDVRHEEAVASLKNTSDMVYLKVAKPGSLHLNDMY
test_description: holdup assay
Set-up: key: below the threshold = too weak to quantify, mostly under pKd 3.1 to 4
stated_conditions: plain residues with an end cap or a label only (N-terminal biotin on a linker: ado-ado)
# pKd per entry
Form rule: numeric answer, no unit written next to it.

                        binder  reported_measurement
0   AHGSTRDQSI [KCNB1, Q14721]                  4.21
1   GSQSQVETEA [FKBP4, Q02790]                   4.2
2  DYSNLRETDI [ADRA1D, P25100]                  4.39
3  HLSTRQGTCV [ATRNL1, Q5VV63]                  4.22
4   RSPVATATSC [DUSP5, Q16690]                  4.18

Query: Can you look up the measured pKd of YAEKRMLTEV [KCNA6, P17658] for me?
Result: 4.6

Query: Can you look up the measured pKd of PSDSVGKDVF [EGLN1, Q9GZT9] for me?
Result: 4.07

Data origin, for the record: paper PMC9482650
